tested on: RPMI 8402; test: Cytotoxicity against human lymphoblast cell line RPMI 8402; type: functional, cell-based
// IC50 lookup, one value per entry
Express it in nM; write the number only.

// known answers, use as guide
[[record]]
compoundstructure = "Cc1cccc(-c2nc3cc(-c4nc5cc(C#N)ccc5[nH]4)ccc3[nH]2)c1"
measurementunits = "nM"
resultnumber = 860

[[record]]
compoundstructure = "N#Cc1ccc2[nH]c(-c3ccc4[nH]c(-c5ccc6ccccc6c5)nc4c3)nc2c1"
measurementunits = "nM"
resultnumber = 130

[[record]]
compoundstructure = "NC(=O)c1ccc2[nH]c(-c3ccc4[nH]c(-c5ccc6ccccc6c5)nc4c3)nc2c1"
measurementunits = "nM"
resultnumber = 740


Shift focus to the following entry.
# input compound: Cc1cccc(-c2nc3cc(-c4nc5cc(C(N)=O)ccc5[nH]4)ccc3[nH]2)c1 ; wanted: its IC50
8200

----------
// REC lookup, one value per entry
test system: DNA topoisomerase 1 (Bos taurus); experiment: Effective concentration against Topoisomerase-I (purified from calf thymus gland) mediated DNA cleavage relative to Hoechst 33342
Just the number.

// known answers, use as guide
[[record]]
compoundstructure = "N#Cc1ccc2[nH]c(-c3ccc4[nH]c(-c5cccc6ccccc56)nc4c3)nc2c1"
targetsystem = "DNA topoisomerase 1 (Bos taurus)"
resultnumber = 10

[[record]]
compoundstructure = "NC(=O)c1ccc2[nH]c(-c3ccc4[nH]c(-c5ccccc5)nc4c3)nc2c1"
targetsystem = "DNA topoisomerase 1 (Bos taurus)"
resultnumber = 10

[[record]]
compoundstructure = "NC(=O)c1ccc2[nH]c(-c3ccc4[nH]c(-c5cccc6ccccc56)nc4c3)nc2c1"
targetsystem = "DNA topoisomerase 1 (Bos taurus)"
resultnumber = 20


Shift focus to the following entry.
# input molecule: Cc1ccccc1-c1nc2cc(-c3nc4cc(N5CCN(C)CC5)ccc4[nH]3)ccc2[nH]1 ; wanted: its REC
10
